Test: Absolute oral bioavailability
Settings: monkey, in vivo, free base suspension, read-out: absolute oral bioavailability (% F)
RESULT TYPE: bioavailability

Form field bioavailability, entry CCOC(=O)C1=C(NN2CCN(CC(F)(F)F)CC2)O/C(=C\c2c[nH]c3ncccc23)C1=O [SRA141] : 1 to 33%

###

Experiment: Absolute oral bioavailability
Conditions: in vivo, free base suspension, fasted, range given for mouse, rat and dog together, read-out: absolute oral bioavailability (% F)
RESULT TYPE: bioavailability

Form field bioavailability, entry CCOC(=O)C1=C(NN2CCN(CC(F)(F)F)CC2)O/C(=C\c2c[nH]c3ncccc23)C1=O [SRA141] : 31 to 54%

###

Experiment: 4-cycle repeat oral dose toxicology study (5 days on/2 days off)
Type: in vivo, dog
Conditions: plasma, po, 2 mg/kg/day; at NOAEL, dog, female; read-out: AUC24 h
RESULT TYPE: AUC(0-t)
Mention the unit after the number when you answer.

Form field AUC(0-t), entry CCOC(=O)C1=C(NN2CCN(CC(F)(F)F)CC2)O/C(=C\c2c[nH]c3ncccc23)C1=O : 0.804 µg·h/mL

###

Tested on: normal human myeloid progenitors (normal bone marrow)
Test: 3D growth in methylcellulose matrix, 14 days
Format: cell-based
Details: Normal bone marrow 525 (first line), read-out: IC50
Provide the reported IC50 of each item.
Quick reminder: number only, in nM, skip the unit.

Form field IC50, entry CCOC(=O)C1=C(NN2CCN(CC(F)(F)F)CC2)O/C(=C\c2c[nH]c3ncccc23)C1=O : 375

Form field IC50, entry Nc1ccn([C@@H]2O[C@H](CO)[C@@H](O)[C@@H]2O)c(=O)n1 [Cytarabine, cytosine arabinoside, reference compound] : 3.7

###

Test system: normal human myeloid progenitors (normal bone marrow)
Assay: 3D growth in methylcellulose matrix, 14 days
Format: cell-based
Conditions: Normal bone marrow 525 (second line), read-out: IC50
RESULT TYPE: IC50 (nM)
Quick reminder: number only, in nM, skip the unit.

Form field IC50, entry CCOC(=O)C1=C(NN2CCN(CC(F)(F)F)CC2)O/C(=C\c2c[nH]c3ncccc23)C1=O [SRA141] : 212

Form field IC50, entry Nc1ccn([C@@H]2O[C@H](CO)[C@@H](O)[C@@H]2O)c(=O)n1 [Cytarabine, cytosine arabinoside, reference compound] : 3.8

###

Assay: 4-cycle repeat oral dose toxicology study (5 days on/2 days off)
Assay type: in vivo, rat
Conditions: plasma, po, 100 mg/kg/day; at MTD/HNSTD, rat, male; read-out: AUC24 h
RESULT TYPE: AUC(0-t) (ng·h/mL)
Quick reminder: number only, in ng·h/mL, skip the unit.

Form field AUC(0-t), entry CCOC(=O)C1=C(NN2CCN(CC(F)(F)F)CC2)O/C(=C\c2c[nH]c3ncccc23)C1=O : 5130

###

Assay: 4-cycle repeat oral dose toxicology study (5 days on/2 days off)
Assay type: in vivo, dog
Settings: plasma, po, 10 mg/kg/day; at MTD/HNSTD, dog, female; read-out: AUC24 h
RESULT TYPE: AUC(0-t) (ng·h/mL)
Quick reminder: number only, in ng·h/mL, skip the unit.

Form field AUC(0-t), entry CCOC(=O)C1=C(NN2CCN(CC(F)(F)F)CC2)O/C(=C\c2c[nH]c3ncccc23)C1=O [SRA141] : 6840

###

Provide the reported pIC50 of each item.
System: AML-blast progenitors
Assay: 3D growth in methylcellulose matrix, 14 days
Format: cell-based
Conditions: AML-blast progenitor 915; read-out: IC50
# pIC50: negative log10 of molar concentration; output just the value

Form field pIC50, entry Nc1ccn([C@@H]2O[C@H](CO)[C@@H](O)[C@@H]2O)c(=O)n1 [Cytarabine, cytosine arabinoside, reference compound] : 8.09

Form field pIC50, entry CCOC(=O)C1=C(NN2CCN(CC(F)(F)F)CC2)O/C(=C\c2c[nH]c3ncccc23)C1=O : 6.75

###

Test: 4-cycle repeat oral dose toxicology study (5 days on/2 days off)
Format: in vivo, dog
Conditions: in vivo, oral; dog (HNSTD)
RESULT TYPE: MTD at 4 cycles (5 days on/2 days off) (mg/kg/day)
Quick reminder: number only, in mg/kg/day, skip the unit.

Form field MTD at 4 cycles (5 days on/2 days off), entry CCOC(=O)C1=C(NN2CCN(CC(F)(F)F)CC2)O/C(=C\c2c[nH]c3ncccc23)C1=O [SRA141] : 10

###

Biological target: OATP1B3 (Homo sapiens, UniProt Q9NPD5)
Sequence (Q9NPD5 whole entry): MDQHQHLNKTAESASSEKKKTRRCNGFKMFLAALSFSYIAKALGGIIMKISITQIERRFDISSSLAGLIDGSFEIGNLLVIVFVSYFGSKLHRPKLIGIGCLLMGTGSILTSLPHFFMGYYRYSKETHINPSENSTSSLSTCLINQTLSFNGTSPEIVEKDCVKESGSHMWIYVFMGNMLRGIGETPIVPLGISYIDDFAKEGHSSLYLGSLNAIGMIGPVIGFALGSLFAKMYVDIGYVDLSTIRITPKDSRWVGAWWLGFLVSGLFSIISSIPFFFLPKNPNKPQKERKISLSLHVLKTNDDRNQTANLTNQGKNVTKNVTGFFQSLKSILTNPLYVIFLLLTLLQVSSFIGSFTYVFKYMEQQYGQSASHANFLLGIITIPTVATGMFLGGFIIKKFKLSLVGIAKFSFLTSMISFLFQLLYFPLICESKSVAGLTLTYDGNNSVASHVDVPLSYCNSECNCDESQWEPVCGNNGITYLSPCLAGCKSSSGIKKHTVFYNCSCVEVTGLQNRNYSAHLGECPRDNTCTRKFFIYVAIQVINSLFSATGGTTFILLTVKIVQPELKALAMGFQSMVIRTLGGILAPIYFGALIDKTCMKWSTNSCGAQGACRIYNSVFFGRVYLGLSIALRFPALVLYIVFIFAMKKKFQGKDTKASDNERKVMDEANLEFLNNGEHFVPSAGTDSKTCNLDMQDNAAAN
Test: In vitro transporter inhibition
Type: in vitro ADME
RESULT TYPE: inhibition at 10 µM

Form field inhibition at 10 µM, entry CCOC(=O)C1=C(NN2CCN(CC(F)(F)F)CC2)O/C(=C\c2c[nH]c3ncccc23)C1=O [SRA141] : > 50%

###

System: CYP 3A4/5
Assay: In vitro time and metabolism-dependent CYP inhibition
Assay type: in vitro ADME
Conditions: human
pIC50: −log10 of the molar value.
RESULT TYPE: pIC50

Form field pIC50, entry CCOC(=O)C1=C(NN2CCN(CC(F)(F)F)CC2)O/C(=C\c2c[nH]c3ncccc23)C1=O : 5.17 to 5.21

###

System: normal human myeloid progenitors (normal bone marrow)
Test: 3D growth in methylcellulose matrix, 14 days
Type: cell-based
Conditions: read-out: mean IC50, normal bone marrow preparations
Procedure: The anti-proliferative activity of SRA141 (0.3-5 μM) was also evaluated in additional 3D growth studies conducted in a methylcellulose growth matrix using normal human myeloid (n=3) and AML-blast progenitors incubated for 14 days.
RESULT TYPE: pIC50
# pIC50: negative log10 of molar concentration; output just the value

Fill in: normal human myeloid progenitors (normal bone marrow) pIC50 for CCOC(=O)C1=C(NN2CCN(CC(F)(F)F)CC2)O/C(=C\c2c[nH]c3ncccc23)C1=O = 6.60

###

Assay: 4-cycle repeat oral dose toxicology study (5 days on/2 days off)
Type: in vivo, dog
Settings: plasma, po, 2 mg/kg/day; at NOAEL, dog, male
RESULT TYPE: Cmax (ng/mL)
Quick reminder: number only, in ng/mL, skip the unit.

Form field Cmax, entry CCOC(=O)C1=C(NN2CCN(CC(F)(F)F)CC2)O/C(=C\c2c[nH]c3ncccc23)C1=O : 98

###

Test system: AML-blast progenitors
Experiment: 3D growth in methylcellulose matrix, 14 days
Assay type: cell-based
Details: AML-blast progenitor 200; read-out: IC50
Provide the reported pIC50 of each item.
# pIC50: negative log10 of molar concentration; output just the value

Fill in: AML-blast progenitors pIC50 for CCOC(=O)C1=C(NN2CCN(CC(F)(F)F)CC2)O/C(=C\c2c[nH]c3ncccc23)C1=O = 6.92

Fill in: AML-blast progenitors pIC50 for Nc1ccn([C@@H]2O[C@H](CO)[C@@H](O)[C@@H]2O)c(=O)n1 [Cytarabine, cytosine arabinoside, reference compound] = 8.55

###

Target: Cdc7 (Homo sapiens)
Sequence (O00311 whole entry): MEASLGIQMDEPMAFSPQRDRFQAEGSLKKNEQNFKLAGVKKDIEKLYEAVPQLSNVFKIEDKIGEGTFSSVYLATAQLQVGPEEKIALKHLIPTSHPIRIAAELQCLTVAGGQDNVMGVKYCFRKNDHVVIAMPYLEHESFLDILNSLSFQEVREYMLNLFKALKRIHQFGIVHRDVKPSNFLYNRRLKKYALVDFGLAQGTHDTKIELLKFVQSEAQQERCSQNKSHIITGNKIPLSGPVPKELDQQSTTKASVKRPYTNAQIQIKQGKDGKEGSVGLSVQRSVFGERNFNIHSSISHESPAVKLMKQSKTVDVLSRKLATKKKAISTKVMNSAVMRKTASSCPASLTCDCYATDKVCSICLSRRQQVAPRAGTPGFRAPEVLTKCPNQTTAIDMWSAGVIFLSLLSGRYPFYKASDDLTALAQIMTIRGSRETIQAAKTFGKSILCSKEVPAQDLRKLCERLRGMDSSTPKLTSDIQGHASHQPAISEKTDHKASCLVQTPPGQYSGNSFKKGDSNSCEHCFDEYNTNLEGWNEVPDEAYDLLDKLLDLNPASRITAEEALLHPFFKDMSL
Sequence (Q9UBU7 whole entry partner): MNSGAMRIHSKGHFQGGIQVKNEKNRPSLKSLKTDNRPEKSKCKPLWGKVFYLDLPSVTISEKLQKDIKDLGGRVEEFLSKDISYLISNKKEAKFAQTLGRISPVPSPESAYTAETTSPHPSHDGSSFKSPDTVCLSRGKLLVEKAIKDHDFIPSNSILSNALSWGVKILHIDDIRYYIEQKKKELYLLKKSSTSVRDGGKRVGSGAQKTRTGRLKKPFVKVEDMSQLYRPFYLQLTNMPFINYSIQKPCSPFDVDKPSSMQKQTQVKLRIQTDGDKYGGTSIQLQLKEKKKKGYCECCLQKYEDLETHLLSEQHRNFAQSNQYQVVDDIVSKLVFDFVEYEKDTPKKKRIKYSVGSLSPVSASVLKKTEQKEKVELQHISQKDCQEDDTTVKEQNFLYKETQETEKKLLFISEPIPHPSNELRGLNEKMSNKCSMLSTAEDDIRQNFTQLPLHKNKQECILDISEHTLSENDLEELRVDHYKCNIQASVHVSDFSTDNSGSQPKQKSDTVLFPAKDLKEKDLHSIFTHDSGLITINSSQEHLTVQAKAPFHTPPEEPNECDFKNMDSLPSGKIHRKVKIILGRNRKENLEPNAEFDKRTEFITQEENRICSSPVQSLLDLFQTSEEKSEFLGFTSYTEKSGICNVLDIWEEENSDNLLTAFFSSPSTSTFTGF
Assay: In vitro biochemical kinase assay
Settings: no pre-incubation
RESULT TYPE: IC50 (nM)
Quick reminder: number only, in nM, skip the unit.

Form field IC50, entry CCOC(=O)C1=C(NN2CCN(CC(F)(F)F)CC2)O/C(=C\c2c[nH]c3ncccc23)C1=O : 4

###

Assay: In vitro plasma protein binding
Format: in vitro ADME
Conditions: range given for mouse and dog together
RESULT TYPE: fraction unbound

Form field fraction unbound, entry CCOC(=O)C1=C(NN2CCN(CC(F)(F)F)CC2)O/C(=C\c2c[nH]c3ncccc23)C1=O : 0.23 to 0.42

###

Experiment: In vitro plasma protein binding
Format: in vitro ADME
Conditions: human
RESULT TYPE: fraction unbound

Form field fraction unbound, entry CCOC(=O)C1=C(NN2CCN(CC(F)(F)F)CC2)O/C(=C\c2c[nH]c3ncccc23)C1=O : < 0.1

###

System: AML-blast progenitors
Experiment: 3D growth in methylcellulose matrix, 14 days
Type: cell-based
Settings: AML-blast progenitor 810 (sample censored); read-out: IC50
Provide the reported IC50 of each item.
Quick reminder: number only, in nM, skip the unit.

Form field IC50, entry CCOC(=O)C1=C(NN2CCN(CC(F)(F)F)CC2)O/C(=C\c2c[nH]c3ncccc23)C1=O : 831

Form field IC50, entry Nc1ccn([C@@H]2O[C@H](CO)[C@@H](O)[C@@H]2O)c(=O)n1 [Cytarabine, cytosine arabinoside, reference compound] : 9.6

###

Test system: Molm-16
Assay: AML 3D culture, 5 days
Type: cell-based
Conditions: MOLM16; Molm-16 cell line
Provide the reported IC50 of each item.
Quick reminder: number only, in µM, skip the unit.

Form field IC50, entry CCOC(=O)C1=C(NN2CCN(CC(F)(F)F)CC2)O/C(=C\c2c[nH]c3ncccc23)C1=O : 0.24

Form field IC50, entry Nc1ccn([C@@H]2O[C@H](CO)[C@@H](O)[C@@H]2O)c(=O)n1 [Cytarabine, cytosine arabinoside, reference compound] : 0.07
